Tested on: A. baumannii ATCC 19606
Test: MIC, broth microdilution
Type: cell-based
Conditions: Acinetobacter baumannii, ATCC19606; A. baumannii ATCC 19606; read-out: Minimum inhibitory concentration A.b.^f
Measured Metric: MIC (µg/mL)

C=C[C@]1(C)C[C@@H](OC(=O)CSc2nc3cc[n+](Cc4ccc(Cl)cc4)cc3[nH]2)[C@]2(C)[C@H](C)CC[C@]3(CCC(=O)[C@H]32)[C@@H](C)[C@@H]1O :: 16

1 = C=C[C@]1(C)C[C@@H](OC(=O)CSc2nc3cc[n+](Cc4ccc(C(F)(F)F)cc4)cc3[nH]2)[C@]2(C)[C@H](C)CC[C@]3(CCC(=O)[C@H]32)[C@@H](C)[C@@H]1O
2 = C=C[C@]1(C)C[C@@H](OC(=O)CSc2nc3cc[n+](Cc4ccc(-c5ccccc5)cc4)cc3[nH]2)[C@]2(C)[C@H](C)CC[C@]3(CCC(=O)[C@H]32)[C@@H](C)[C@@H]1O
Challenge: Could you point out whether the larger MIC belongs to 1 or to 2 ? Your answer should be the label of the entry you select.
Response given: 1
(1: 64 µg/mL, 2: 16 µg/mL)

###

System: Methicillin-resistant S. epidermidis ATCC 51625
Assay: MIC, broth microdilution
Type: cell-based
Conditions: Staphylococcus epidermidis, ATCC 51625 / MRSE; Methicillin-resistant S. epidermidis ATCC 51625; read-out: Minimum inhibitory concentration MRSE^e
Measured Metric: MIC (µg/mL)

Solved entries (count: 6):
C=C[C@]1(C)C[C@@H](OC(=O)CSc2nc3cc[n+](Cc4cc(C)cc(C)c4)cc3[nH]2)[C@]2(C)[C@H](C)CC[C@]3(CCC(=O)[C@H]32)[C@@H](C)[C@@H]1O :: 64
C=C[C@]1(C)C[C@@H](OC(=O)CSc2nc3cc[n+](Cc4ccc(C(C)(C)C)cc4)cc3[nH]2)[C@]2(C)[C@H](C)CC[C@]3(CCC(=O)[C@H]32)[C@@H](C)[C@@H]1O :: 8
C=C[C@]1(C)C[C@@H](OC(=O)CSc2nc3cc[n+](Cc4ccc(-c5ccccc5)cc4)cc3[nH]2)[C@]2(C)[C@H](C)CC[C@]3(CCC(=O)[C@H]32)[C@@H](C)[C@@H]1O :: 32
C=C[C@]1(C)C[C@@H](OC(=O)CSc2nc3cc[n+](Cc4cc(OC)cc(OC)c4)cc3[nH]2)[C@]2(C)[C@H](C)CC[C@]3(CCC(=O)[C@H]32)[C@@H](C)[C@@H]1O :: 64
C=C[C@]1(C)C[C@@H](OC(=O)CSc2nc3cc[n+](Cc4cc(F)c(F)cc4F)cc3[nH]2)[C@]2(C)[C@H](C)CC[C@]3(CCC(=O)[C@H]32)[C@@H](C)[C@@H]1O :: 64
C=C[C@]1(C)C[C@@H](OC(=O)CSc2nc3cc[n+](Cc4ccc(C)cc4)cc3[nH]2)[C@]2(C)[C@H](C)CC[C@]3(CCC(=O)[C@H]32)[C@@H](C)[C@@H]1O :: 0.0625

I = C=C[C@]1(C)C[C@@H](OC(=O)CSc2nc3cc[n+](Cc4ccc([N+](=O)[O-])cc4)cc3[nH]2)[C@]2(C)[C@H](C)CC[C@]3(CCC(=O)[C@H]32)[C@@H](C)[C@@H]1O
II = C=C[C@]1(C)C[C@@H](OC(=O)CSc2nc3cc[n+](Cc4ccc(F)cc4)cc3[nH]2)[C@]2(C)[C@H](C)CC[C@]3(CCC(=O)[C@H]32)[C@@H](C)[C@@H]1O
Challenge: For the pair I and II , which entry has the numerically smaller recorded MIC? Your answer should be the label of the entry you select.
Response given: I

1 = C=C[C@]1(C)C[C@@H](OC(=O)CSc2nc3cc[n+](Cc4ccc(Br)cc4)cc3[nH]2)[C@]2(C)[C@H](C)CC[C@]3(CCC(=O)[C@H]32)[C@@H](C)[C@@H]1O
2 = C=C[C@]1(C)C[C@@H](OC(=O)CSc2nc3cc[n+](Cc4ccc(C(F)(F)F)cc4)cc3[nH]2)[C@]2(C)[C@H](C)CC[C@]3(CCC(=O)[C@H]32)[C@@H](C)[C@@H]1O
Challenge: For the pair 1 and 2 , which entry has the numerically smaller recorded MIC? Your answer should be the label of the entry you select.
Response given: 1
(1: 16 µg/mL, 2: 32 µg/mL)
